testSystem: T1R umami taste receptor (Homo sapiens, UniProt Q7RTX0+Q7RTX1)
methodDescription: in vitro cell-based assay, enhancement of MSG binding at umami taste receptor
statedConditions: cells that express the T1R umami taste receptor, from dose-binding curves
endpointLabel: pEC50
Answer as the number alone; pEC50 is minus log10 of concentration in mol/L.

Memo: C/C=C(\C)C(=O)NCCCCNC(=O)/C=C/c1cccc(OC)c1 , reported pEC50: 5.70

Memo: C/C=C(\C)C(=O)NCCCCNC(=O)c1ccc2c(c1)OCO2 , reported pEC50: 5.22

Memo: C/C=C(\C)C(=O)NCCCCNC(=O)/C=C/c1ccccc1OC , reported pEC50: 5.70

====

testSystem: T1R umami taste receptor (Homo sapiens, UniProt Q7RTX0+Q7RTX1)
Sequence (Q7RTX1 21-841): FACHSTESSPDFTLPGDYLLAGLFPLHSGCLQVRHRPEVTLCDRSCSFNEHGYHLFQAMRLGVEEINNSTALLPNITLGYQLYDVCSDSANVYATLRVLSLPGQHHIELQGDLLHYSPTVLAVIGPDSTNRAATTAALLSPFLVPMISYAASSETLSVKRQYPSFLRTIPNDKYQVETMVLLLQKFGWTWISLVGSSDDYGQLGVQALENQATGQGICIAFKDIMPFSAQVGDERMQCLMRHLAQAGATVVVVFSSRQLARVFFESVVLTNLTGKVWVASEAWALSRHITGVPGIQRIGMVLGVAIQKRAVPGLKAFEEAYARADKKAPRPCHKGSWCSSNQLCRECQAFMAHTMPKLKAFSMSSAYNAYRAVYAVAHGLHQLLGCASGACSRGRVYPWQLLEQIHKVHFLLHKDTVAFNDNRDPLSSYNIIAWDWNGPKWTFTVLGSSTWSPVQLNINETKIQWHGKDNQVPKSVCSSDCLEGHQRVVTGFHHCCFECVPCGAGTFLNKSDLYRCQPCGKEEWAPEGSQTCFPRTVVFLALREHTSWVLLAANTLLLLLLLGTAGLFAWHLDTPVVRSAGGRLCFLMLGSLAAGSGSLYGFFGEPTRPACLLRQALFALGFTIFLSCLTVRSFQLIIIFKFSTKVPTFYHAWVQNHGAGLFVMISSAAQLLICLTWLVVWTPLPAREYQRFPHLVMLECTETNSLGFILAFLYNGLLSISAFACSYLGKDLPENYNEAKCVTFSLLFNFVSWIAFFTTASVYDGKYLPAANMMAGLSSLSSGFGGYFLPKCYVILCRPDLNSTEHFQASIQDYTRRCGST
Sequence (Q7RTX0 21-852): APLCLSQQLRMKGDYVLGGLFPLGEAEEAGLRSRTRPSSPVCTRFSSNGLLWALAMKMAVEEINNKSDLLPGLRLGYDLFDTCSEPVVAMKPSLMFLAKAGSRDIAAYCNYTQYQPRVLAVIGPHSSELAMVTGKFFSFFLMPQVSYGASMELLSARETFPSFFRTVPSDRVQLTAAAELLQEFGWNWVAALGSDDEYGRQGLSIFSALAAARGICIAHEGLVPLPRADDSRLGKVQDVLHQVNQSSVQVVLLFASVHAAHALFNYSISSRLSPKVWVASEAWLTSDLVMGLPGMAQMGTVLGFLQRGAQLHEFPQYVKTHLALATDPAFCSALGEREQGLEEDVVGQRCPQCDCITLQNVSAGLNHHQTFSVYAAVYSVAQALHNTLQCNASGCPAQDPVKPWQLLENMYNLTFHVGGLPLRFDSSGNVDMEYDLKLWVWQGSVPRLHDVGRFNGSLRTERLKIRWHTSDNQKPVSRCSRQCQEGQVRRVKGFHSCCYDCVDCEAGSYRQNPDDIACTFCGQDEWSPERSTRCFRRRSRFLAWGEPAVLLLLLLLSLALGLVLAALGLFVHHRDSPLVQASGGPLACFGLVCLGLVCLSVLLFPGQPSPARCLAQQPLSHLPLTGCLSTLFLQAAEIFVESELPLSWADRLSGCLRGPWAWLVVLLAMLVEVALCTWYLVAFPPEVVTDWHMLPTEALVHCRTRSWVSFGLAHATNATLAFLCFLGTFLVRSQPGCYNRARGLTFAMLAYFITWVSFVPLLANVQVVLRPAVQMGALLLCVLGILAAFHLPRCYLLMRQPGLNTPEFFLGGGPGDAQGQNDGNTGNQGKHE
methodDescription: in vitro cell-based assay, enhancement of MSG binding at umami taste receptor
statedConditions: cells that express the T1R umami taste receptor, from dose-binding curves
pEC50: −log10 of the molar value.
Catalogue of pEC50 values

[
  {
    "structureString": "C/C=C(\\C)C(=O)NCCCCNC(=O)/C=C/c1ccc(OCC)cc1",
    "observed": "> 6.00"
  },
  {
    "structureString": "O=C(/C=C/c1ccccc1)NCCCCNC(=O)/C=C/c1ccccc1",
    "observed": "< 4.30"
  },
  {
    "structureString": "CC/C=C(\\C)C(=O)NCCCCNC(=O)/C=C/c1ccccc1",
    "observed": "< 4.30"
  }
]

Kindly review the next molecule as well.
Memo: C/C=C(/C)C(=O)NCCCCNC(=O)/C=C/c1ccccc1 , reported pEC50: < 4.30

Reference for the values: patent US20240315299A1
